Test system: human HL60 cells
Measurement Protocol: SWATH-MS proteomics, differential protein representation, akirin2 KO vs WT HL60 cells
Assay type: cell-based
Measurement Parameters: akirin2 KO vs WT HL60 cells; sheet "Under-represented in KO"
Attribute Measured: Log (Fold Change)
Output: the number by itself.

Study these solved cases before continuing.
* sp¦P30048¦PRDX3_HUMAN (protein, UniProt P30048 62-256, looked up) Thioredoxin-dependent …: APAVTQHAPYFKGTAVVNGEFKDLSLDDFKGKYLVLFFYPLDFTFVCPTEIVAFSDKANEFHDVNCEVVAVSVDSHFSHLAWINTPRKNGGLGHMNIALLSDLTKQISRDYGVLLEGSGLALRGLFIIDPNGVIKHLSVNDLPVGRSVEETLRLVKAFQYVETHGEVCPANWTPDSPTIKPSPAASKEYFQKVNQ | -0.198
* sp¦Q8N335¦GPD1L_HUMAN (protein, UniProt Q8N335 1-351, looked up) Glycerol-3-phosphate …: MAAAPLKVCIVGSGNWGSAVAKIIGNNVKKLQKFASTVKMWVFEETVNGRKLTDIINNDHENVKYLPGHKLPENVVAMSNLSEAVQDADLLVFVIPHQFIHRICDEITGRVPKKALGITLIKGIDEGPEGLKLISDIIREKMGIDISVLMGANIANEVAAEKFCETTIGSKVMENGLLFKELLQTPNFRITVVDDADTVELCGALKNIVAVGAGFCDGLRCGDNTKAAVIRLGLMEMIAFARIFCKGQVSTATFLESCGVADLITTCYGGRNRRVAEAFARTGKTIEELEKEMLNGQKLQGPQTSAEVYRILKQKGLLDKFPLFTAVYQICYESRPVQEMLSCLQSHPEHT | -0.1655
* sp¦P62995¦TRA2B_HUMAN (protein, UniProt P62995 2-288, looked up) Transformer-2 protein homolog …: SDSGEQNYGERESRSASRSGSAHGSGKSARHTPARSRSKEDSRRSRSKSRSRSESRSRSRRSSRRHYTRSRSRSRSHRRSRSRSYSRDYRRRHSHSHSPMSTRRRHVGNRANPDPNCCLGVFGLSLYTTERDLREVFSKYGPIADVSIVYDQQSRRSRGFAFVYFENVDDAKEAKERANGMELDGRRIRVDFSITKRPHTPTPGIYMGRPTYGSSRRRDYYDRGYDRGYDDRDYYSRSYRGGGGGGGGWRAAQDRDQIYRRRSPSPYYSRGGYRSRSRSRSYSPRRY | -0.5134
* sp¦P84103¦SRSF3_HUMAN (protein, UniProt P84103 1-164, looked up) Serine/arginine-rich splicing …: MHRDSCPLDCKVYVGNLGNNGNKTELERAFGYYGPLRSVWVARNPPGFAFVEFEDPRDAADAVRELDGRTLCGCRVRVELSNGEKRSRNRGPPPSWGRRPRDDYRRRSPPPRRRSPRRRSFSRSRSRSLSRDRRRERSLSRERNHKPSRSFSRSRSRSRSNERK | -0.5667
* sp¦Q13637¦RAB32_HUMAN (protein, UniProt Q13637 2-225, looked up) Ras-related protein Rab-32: AGGGAGDPGLGAAAAPAPETREHLFKVLVIGELGVGKTSIIKRYVHQLFSQHYRATIGVDFALKVLNWDSRTLVRLQLWDIAGQERFGNMTRVYYKEAVGAFVVFDISRSSTFEAVLKWKSDLDSKVHLPNGSPIPAVLLANKCDQNKDSSQSPSQVDQFCKEHGFAGWFETSAKDNINIEEAARFLVEKILVNHQSFPNEENDVDKIKLDQETLRAENKSQCC | -0.1858

Exam item: Need Log (Fold Change) of sp¦Q04837¦SSBP_HUMAN (protein, UniProt Q04837 17-148, looked up) Single-stranded DNA-binding …: ESETTTSLVLERSLNRVHLLGRVGQDPVLRQVEGKNPVTIFSLATNEMWRSGDSEVYQLGDVSQKTTWHRISVFRPGLRDVAYQYVKKGSRIYLEGKIDYGEYMDKNNVRRQATTIIADNIIFLSDQTKEKE , thanks.
Marked response: -0.1687

Exam item: Need Log (Fold Change) of sp¦Q9NUQ2¦PLCE_HUMAN (protein, UniProt Q9NUQ2 1-364, looked up) 1-acyl-sn-glycerol-3-phosphate …: MLLSLVLHTYSMRYLLPSVVLLGTAPTYVLAWGVWRLLSAFLPARFYQALDDRLYCVYQSMVLFFFENYTGVQILLYGDLPKNKENIIYLANHQSTVDWIVADILAIRQNALGHVRYVLKEGLKWLPLYGCYFAQHGGIYVKRSAKFNEKEMRNKLQSYVDAGTPMYLVIFPEGTRYNPEQTKVLSASQAFAAQRGLAVLKHVLTPRIKATHVAFDCMKNYLDAIYDVTVVYEGKDDGGQRRESPTMTEFLCKECPKIHIHIDRIDKKDVPEEQEHMRRWLHERFEIKDKMLIEFYESPDPERRKRFPGKSVNSKLSIKKTLPSMLILSGLTAGMLMTDAGRKLYVNTWIYGTLLGCLWVTIKA , thanks.
Marked response: -0.6223

Exam item: Need Log (Fold Change) of sp¦Q9Y3A6¦TMED5_HUMAN (protein, UniProt Q9Y3A6 28-229, looked up) Transmembrane emp24 …: FTPSLDSDFTFTLPAGQKECFYQPMPLKASLEIEYQVLDGAGLDIDFHLASPEGKTLVFEQRKSDGVHTVETEVGDYMFCFDNTFSTISEKVIFFELILDNMGEQAQEQEDWKKYITGTDILDMKLEDILESINSIKSRLSKSGHIQTLLRAFEARDRNIQESNFDRVNFWSMVNLVVMVVVSAIQVYMLKSLFEDKRKSRT , thanks.
Marked response: -0.5928

Exam item: Need Log (Fold Change) of sp¦Q9GZY6¦NTAL_HUMAN (protein, UniProt Q9GZY6 1-243, looked up) Linker for activation of …: MSSGTELLWPGAALLVLLGVAASLCVRCSRPGAKRSEKIYQQRSLREDQQSFTGSRTYSLVGQAWPGPLADMAPTRKDKLLQFYPSLEDPASSRYQNFSKGSRHGSEEAYIDPIAMEYYNWGRFSKPPEDDDANSYENVLICKQKTTETGAQQEGIGGLCRGDLSLSLALKTGPTSGLCPSASPEEDEESEDYQNSASIHQWRESRKVMGQLQREASPGPVGSPDEEDGEPDYVNGEVAATEA , thanks.
Marked response: -0.4273

Exam item: Need Log (Fold Change) of sp¦Q6IBS0¦TWF2_HUMAN (protein, UniProt Q6IBS0 2-349, looked up) Twinfilin-2: AHQTGIHATEELKEFFAKARAGSVRLIKVVIEDEQLVLGASQEPVGRWDQDYDRAVLPLLDAQQPCYLLYRLDSQNAQGFEWLFLAWSPDNSPVRLKMLYAATRATVKKEFGGGHIKDELFGTVKDDLSFAGYQKHLSSCAAPAPLTSAERELQQIRINEVKTEISVESKHQTLQGLAFPLQPEAQRALQQLKQKMVNYIQMKLDLERETIELVHTEPTDVAQLPSRVPRDAARYHFFLYKHTHEGDPLESVVFIYSMPGYKCSIKERMLYSSCKSRLLDSVEQDFHLEIAKKIEIGDGAELTAEFLYDEVHPKQHAFKQAFAKPKGPGGKRGHKRLIRGPGENGDDS , thanks.
Marked response: -0.1728
